Measured IC50 values are reported for all entries that follow.
target: STAT3 (Homo sapiens); construct: plasmid pSTAT3-TA-luc), which contains a stably operating STAT3 promoter; endogenous in cells; test: STAT3 reporter gene assay (luciferase), LNCaP stable cell line (pSTAT3-TA-luc), IL-6 stimulation; assay type: cell-based
Sequence (P40763 whole entry): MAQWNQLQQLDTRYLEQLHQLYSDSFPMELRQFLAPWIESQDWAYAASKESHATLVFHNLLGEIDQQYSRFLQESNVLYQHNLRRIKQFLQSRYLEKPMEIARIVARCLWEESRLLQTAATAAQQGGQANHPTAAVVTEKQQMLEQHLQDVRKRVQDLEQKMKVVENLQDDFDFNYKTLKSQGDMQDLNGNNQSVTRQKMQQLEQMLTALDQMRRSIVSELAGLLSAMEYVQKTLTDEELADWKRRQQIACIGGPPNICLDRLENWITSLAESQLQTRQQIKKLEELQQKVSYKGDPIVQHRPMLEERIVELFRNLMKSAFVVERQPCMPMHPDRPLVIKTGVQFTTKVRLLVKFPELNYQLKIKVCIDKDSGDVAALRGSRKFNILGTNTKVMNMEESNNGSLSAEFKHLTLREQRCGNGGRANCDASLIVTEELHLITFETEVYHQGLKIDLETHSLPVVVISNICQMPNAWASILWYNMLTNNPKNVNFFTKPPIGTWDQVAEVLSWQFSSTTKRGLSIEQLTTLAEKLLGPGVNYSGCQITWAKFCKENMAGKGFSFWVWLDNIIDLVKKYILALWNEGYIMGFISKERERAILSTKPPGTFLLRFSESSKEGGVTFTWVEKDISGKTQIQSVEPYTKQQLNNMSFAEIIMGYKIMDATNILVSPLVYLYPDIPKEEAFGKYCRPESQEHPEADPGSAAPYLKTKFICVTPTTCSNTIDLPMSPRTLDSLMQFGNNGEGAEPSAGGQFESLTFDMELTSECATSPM

Known IC50 results, listed for orientation:
compound_string	measurement
O=C(Nc1cccc(-c2ccccc2C(F)(F)F)c1)c1cc2cc([N+](=O)[O-])ccc2[nH]1	> 10 µM
CS(=O)(=O)c1ccc2cc(C(=O)Nc3cccc(-c4ccc(F)cc4F)c3)[nH]c2c1	> 10 µM
CS(=O)(=O)Nc1ccc2cc(C(=O)Nc3cccc(-c4cc(C(N)=O)ccc4C(F)(F)F)c3)[nH]c2c1	> 10 µM
CN(c1cc(Cl)cc(NC(=O)c2cc3cc(NS(C)(=O)=O)ccc3s2)c1)c1ccc(F)cc1F	0.053 µM

// moving on: another record for IC50
Request: Find the measured IC50 of "CS(=O)(=O)Nc1ccc2c(Cl)c(C(=O)Nc3cccc(-c4ccc(F)cc4F)c3)sc2c1" and report it.
Response: > 10 µM
